Value source: patent US20260193326A1

- Tested on: T1, AAV5
- T1 construct: also called adeno-associated virus serotype 5
- Assay: SPR, AAV on CM5 chip;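 note: surface plasmon resonance with AAV amine-coupled to the chip as ligand, nanobodies injected as analyte over a concentration series, rate constants and affinity fitted from binding curves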
Rule: koff below 0.001 s⁻¹ gives y, anything at or above gives n.

As a guide, the following entries are already answered.
Binder	Class name
A4-020 (VHH) VHH: VQLQESGGGLVQAGGSLRLSCAASGSTFSINTMGWYRQAPGKQRELVATITRGGNTNYADSVKGRFTISRDNAKNTVYLQMNSLRPEDTAVYYCHVDEVRQSSWTTSNLWGQGTQVTVSS	y
A4-036 (VHH) VHH: VQLQESGGGLAQAGGSLRLSCAASGRGFSINTMGWYRQAPGKQRELVAAVTRGGTTNYADSVKGRFTISRDNAKNTVYLQMNSLRPEDTAVYYCHVDEVRQSSWTTSNLWGQGTQVTVSS	n

In: In the record for A4-018 (VHH) VHH: VQLQESGGGLVQAGGSLRLSCAASGSRFSINTMGWYRQAPGKQREFVATVTRGGNTNYAESVKGRFTISRDNAKNTVYLQMNSLRPEDTAVYYCHVDEVRDSSWTTSNIWGQGTQVTVSS , is koff less than 0.001 s⁻¹?
Out: y

In: In the record for A4-008 (VHH) VHH: VQLQESGGGLVQAGGSLRLSCAASGRAFSINTMGWYRQAPPKQRELVATVTRGGSTNYAGSVKGRFTISRDNAKNTIYLQMNSLRPEDTAVYYCHVDEVRQSSWTTSNIWGQGTQVTVSS , is koff less than 0.001 s⁻¹?
Out: n

In: In the record for A4-009 (VHH) VHH: VQLQESGGGLAQPGGSLRLSCAASGSRFSINTMGWYRQAPGKQREFVAAVTRGGSTNYAGSVKGRFTISRDNAKNTVYLQMNTLRPEDTAVYYCHVDEVRQSSWTTSNIWGQGTQVTVSS , is koff less than 0.001 s⁻¹?
Out: n

In: In the record for A4-024 (VHH) VHH: VQLQESGGGLVQPGGSLRLSCAASGSNFRINTMGWYRQAPGKQRELVATVTRGGSTNYADSVKGRFTISRDNPKNTVYLQMNSLRPEDTAVYYCHVDEVRESSWTTSNLWGQGTQVTVSS , is koff less than 0.001 s⁻¹?
Out: y

In: In the record for A4-043 (VHH) VHH: VQLQESGGGLVQPGGSLRLSCAASGRAFSINTMGWYRQAPGKQRELVATVTRDGSTNYAGSVKGRFTISRDNAKNTVYLQMNSLRPEDTAVYYCHVDEVRQSSWTTSNLWGQGTQVTVSS , is koff less than 0.001 s⁻¹?
Out: y

In: In the record for A4-040 (VHH) VHH: VQLQESGGGLVQPGGSLRLSCAASGRIFSINTMGWYRQAPGKQRELVATVTRGGSTNYADSVKGRFTISRDNAKNTVYLQMNSLRPEDTAVYYCHVDEIRQSSWTTSNLWGQGTQVTVSS , is koff less than 0.001 s⁻¹?
Out: y

In: In the record for A4-029 (VHH) VHH: VQLQESGGGLVQPGGSLRLSCAASGSNFSINTMGWYRQRAGKQRELVATVTRGGSTNYADSVKGRFTISRDNAKNTVYLQMNSLRPEDTAVYYCHIDEIRESSWTTSNLWGQGTQVTVSS , is koff less than 0.001 s⁻¹?
Out: n

In: In the record for A4-031 (VHH) VHH: VQLQESGGGLVQPGGSLRLSCAASGSGFSINTMGWYRQAPGKQRELVATVTSAGSTNYAGSVKGRFTISRDNAKNTVYLQMNSLRPEDTAVYYCHVDEIRQSSWTTSNLWGQGTQVTVSS , is koff less than 0.001 s⁻¹?
Out: n

In: In the record for A4-046 (VHH) VHH: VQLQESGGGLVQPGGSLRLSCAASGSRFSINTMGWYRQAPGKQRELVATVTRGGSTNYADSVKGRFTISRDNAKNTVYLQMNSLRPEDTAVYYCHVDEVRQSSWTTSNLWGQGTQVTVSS , is koff less than 0.001 s⁻¹?
Out: n

In: In the record for A4-049 (VHH) VHH: VQLQESGGGLVQPGGSLRLSCAASGSMFSINTMGWYRQAPGKQRELVAAVTRGGNTNYAGSVKGRFTISRDNAKNTVYLQMNSLRPEDTAVYYCHVDEVRQSSWTTSNLWGQGTQVTVSS , is koff less than 0.001 s⁻¹?
Out: n

In: In the record for A4-047 (VHH) VHH: VQLQESGGGLVQPGGSLRLSCAASGSRFSINTMGWYRQAPGKQRELVATVTRGGSTNYAGSVKGRFTISRDNAKNTVYLQMNSLRPEDTAVYYCHVDEVRQSSWTTSNLWGQGTQVTVSS , is koff less than 0.001 s⁻¹?
Out: n

In: In the record for A4-039 (VHH) VHH: VQLQESGGGLVQPGGSLRLSCAASGSGFSINTMGWYRQAPGKWRELVATVTRGGSTNYAGSVKGRFTISRDNAKNTVYLQMNSLRPEDTAVYYCHIDEVRQSSWTTSNLWGQGTQVTVSS , is koff less than 0.001 s⁻¹?
Out: n

In: In the record for A4-017 (VHH) VHH: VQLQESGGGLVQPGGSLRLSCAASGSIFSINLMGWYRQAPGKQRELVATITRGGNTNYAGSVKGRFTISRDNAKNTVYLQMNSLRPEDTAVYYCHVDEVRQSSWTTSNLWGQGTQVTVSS , is koff less than 0.001 s⁻¹?
Out: n
